The measured values listed here are drawn from paper PMC9044501.

- tested on: myosin in bovine cardiac synthetic thick filaments (BcSTF) (Bos taurus, UniProt Q9BE39)
- Sequence (Q9BE39 whole entry): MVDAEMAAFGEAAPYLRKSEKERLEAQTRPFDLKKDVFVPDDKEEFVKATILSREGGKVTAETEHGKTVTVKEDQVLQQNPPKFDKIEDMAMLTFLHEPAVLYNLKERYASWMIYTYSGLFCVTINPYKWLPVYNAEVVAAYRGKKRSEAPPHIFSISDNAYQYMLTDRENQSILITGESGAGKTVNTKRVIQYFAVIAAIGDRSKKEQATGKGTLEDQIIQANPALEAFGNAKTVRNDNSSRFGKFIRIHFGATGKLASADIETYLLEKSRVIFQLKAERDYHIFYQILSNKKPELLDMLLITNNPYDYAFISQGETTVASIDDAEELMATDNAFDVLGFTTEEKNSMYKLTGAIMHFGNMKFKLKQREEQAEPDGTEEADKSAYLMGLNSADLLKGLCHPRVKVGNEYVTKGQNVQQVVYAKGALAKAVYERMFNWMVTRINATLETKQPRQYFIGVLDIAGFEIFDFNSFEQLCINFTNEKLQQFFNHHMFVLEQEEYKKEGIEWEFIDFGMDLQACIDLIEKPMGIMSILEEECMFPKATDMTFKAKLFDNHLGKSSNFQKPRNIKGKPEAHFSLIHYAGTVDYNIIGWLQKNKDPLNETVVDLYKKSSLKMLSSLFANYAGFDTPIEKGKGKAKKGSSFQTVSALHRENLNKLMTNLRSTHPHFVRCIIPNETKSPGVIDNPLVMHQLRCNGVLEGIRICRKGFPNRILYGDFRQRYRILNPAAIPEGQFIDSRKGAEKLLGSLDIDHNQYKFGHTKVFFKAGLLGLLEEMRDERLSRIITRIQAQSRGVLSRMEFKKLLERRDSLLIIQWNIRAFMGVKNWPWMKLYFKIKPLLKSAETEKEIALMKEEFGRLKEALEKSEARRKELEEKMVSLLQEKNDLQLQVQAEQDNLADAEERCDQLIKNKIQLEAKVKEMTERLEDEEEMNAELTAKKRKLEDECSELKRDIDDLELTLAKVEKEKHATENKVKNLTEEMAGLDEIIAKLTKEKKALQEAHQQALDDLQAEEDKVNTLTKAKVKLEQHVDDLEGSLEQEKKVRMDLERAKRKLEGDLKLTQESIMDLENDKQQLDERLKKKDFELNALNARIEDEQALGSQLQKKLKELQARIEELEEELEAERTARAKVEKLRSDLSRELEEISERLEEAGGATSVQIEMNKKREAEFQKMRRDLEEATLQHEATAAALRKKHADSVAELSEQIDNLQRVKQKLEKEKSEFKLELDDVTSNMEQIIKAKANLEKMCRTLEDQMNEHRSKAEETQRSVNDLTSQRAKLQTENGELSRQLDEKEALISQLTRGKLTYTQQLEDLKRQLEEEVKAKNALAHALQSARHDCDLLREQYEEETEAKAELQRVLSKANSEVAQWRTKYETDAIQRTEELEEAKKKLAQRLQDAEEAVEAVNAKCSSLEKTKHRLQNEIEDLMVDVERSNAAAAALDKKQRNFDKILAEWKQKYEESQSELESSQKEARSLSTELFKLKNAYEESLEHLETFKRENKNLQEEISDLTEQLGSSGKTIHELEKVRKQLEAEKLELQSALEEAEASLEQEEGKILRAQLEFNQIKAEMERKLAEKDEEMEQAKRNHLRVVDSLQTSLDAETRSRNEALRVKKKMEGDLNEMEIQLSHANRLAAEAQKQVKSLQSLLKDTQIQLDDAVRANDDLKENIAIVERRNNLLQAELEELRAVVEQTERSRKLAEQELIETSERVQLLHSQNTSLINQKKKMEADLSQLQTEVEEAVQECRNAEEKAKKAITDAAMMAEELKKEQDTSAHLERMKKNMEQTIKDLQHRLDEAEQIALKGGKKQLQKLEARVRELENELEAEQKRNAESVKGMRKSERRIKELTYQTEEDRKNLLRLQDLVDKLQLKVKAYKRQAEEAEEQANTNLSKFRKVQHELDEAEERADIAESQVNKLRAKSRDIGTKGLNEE
- Sequence (P85100 whole entry partner): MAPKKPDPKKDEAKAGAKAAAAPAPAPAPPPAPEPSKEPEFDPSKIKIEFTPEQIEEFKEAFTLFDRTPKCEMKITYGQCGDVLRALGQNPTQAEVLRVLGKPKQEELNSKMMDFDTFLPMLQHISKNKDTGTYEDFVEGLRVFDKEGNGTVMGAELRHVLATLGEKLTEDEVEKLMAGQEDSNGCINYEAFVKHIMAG
- Sequence (Q3SZE5 whole entry partner): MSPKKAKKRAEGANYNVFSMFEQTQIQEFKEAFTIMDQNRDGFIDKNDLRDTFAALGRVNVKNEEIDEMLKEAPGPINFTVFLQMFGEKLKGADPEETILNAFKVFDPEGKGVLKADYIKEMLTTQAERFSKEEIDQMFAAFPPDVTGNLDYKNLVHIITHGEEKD
- method notes: Single mant-ATP turnover kinetics in BcSTF
- Assay type: biochemical
- test parameters: read-out: SRX Amplitude, Aslow (BcSTF), half-maximal increase, 0μM blebbistatin
pEC50: −log10 of the molar value.
reported endpoint: pEC50

Quote pEC50 reported for Cc1ccc2c(c1)C(=O)[C@]1(O)CCN(c3ccc([N+](=O)[O-])cc3)C1=N2 please. < 4.90

====

- tested on: myosin in bovine cardiac synthetic thick filaments (BcSTF) (Bos taurus, UniProt Q9BE39)
- method notes: Single mant-ATP turnover kinetics in BcSTF
- Assay type: biochemical
- test parameters: read-out: DRX ATPase Rate, kfast (BcSTF), half-maximal decrease, 0μM blebbistatin
pIC50: −log10 of the molar value.
reported endpoint: pIC50

Quote pIC50 reported for Cc1ccc2c(c1)C(=O)[C@]1(O)CCN(c3ccc([N+](=O)[O-])cc3)C1=N2 please. < 4.90
